target-desc: equine FcRn (large alpha subunit p51) / equine beta-2-microglobulin complex, biotinylated (equine) (UniProt P30441)
protocol: SPR (Biacore), pH 6
Here, each record is paired with measured Kd data.
assay-metric: Kd (nM)

- equine IgG4 N434C (antibody, part only; not given: Variable domains, not shown: another chain or arm of the molecule) constant: ASTTAPKVFPLASHSAATSGSTVALGCLVSSYFPEPVTVSWNSGALTSGVHTFPSVLQSSGLYSLSSMVTVPASSLKSQTYICNVAHPASSTKVDKKIVIKECNGGCPAECLQVGPSVFIFPPKPKDVLMISRTPTVTCVVVDVGHDFPDVQFNWYVDGVETHTATTEPKQEQFNSTYRVVSVLPIQHKDWLSGKEFKCKVNNKALPAPVERTISKPTGQPREPQVYVLAPHRDELSKNKVSVTCLVKDFYPTDIDIEWKSNGQPEPETKYSTTPAQLDSDGSYFLYSKLTVETNRWQQGTTFTCAVMHEALHCHYTEKSVSKSPGK: 113
- equine IgG4 T286Y (antibody, part only; not given: variable domains, not shown: another chain or arm of the molecule) constant: ASTTAPKVFPLASHSAATSGSTVALGCLVSSYFPEPVTVSWNSGALTSGVHTFPSVLQSSGLYSLSSMVTVPASSLKSQTYICNVAHPASSTKVDKKIVIKECNGGCPAECLQVGPSVFIFPPKPKDVLMISRTPTVTCVVVDVGHDFPDVQFNWYVDGVETHYATTEPKQEQFNSTYRVVSVLPIQHKDWLSGKEFKCKVNNKALPAPVERTISKPTGQPREPQVYVLAPHRDELSKNKVSVTCLVKDFYPTDIDIEWKSNGQPEPETKYSTTPAQLDSDGSYFLYSKLTVETNRWQQGTTFTCAVMHEALHNHYTEKSVSKSPGK: 26.9
